Provide the reported IC50 of each item.
# STUDY_SYSTEM: uPAR wt (Homo sapiens, UniProt Q03405)
# Sequence (Q03405 23-305 limits assumed): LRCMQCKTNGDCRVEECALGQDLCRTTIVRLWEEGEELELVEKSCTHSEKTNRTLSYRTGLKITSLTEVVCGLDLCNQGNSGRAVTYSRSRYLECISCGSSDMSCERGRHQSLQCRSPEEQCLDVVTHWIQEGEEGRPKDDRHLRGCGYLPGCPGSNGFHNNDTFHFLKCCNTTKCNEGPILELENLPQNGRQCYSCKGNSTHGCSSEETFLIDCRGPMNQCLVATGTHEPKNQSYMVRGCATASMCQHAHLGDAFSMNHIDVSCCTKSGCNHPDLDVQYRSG
Square brackets hold non-standard residues; d marks the D form. Peptide text beside a SMILES is read from it. Cha = N[C@@H](CC1CCCCC1)C(=O)O; AEEA = NCCOCCOCC(=O)O
Numbers only, in nM.

MOLECULE: CC(C)C[C@H](NC(=O)[C@H](Cc1ccc(O)cc1)NC(=O)[C@@H](CCCNC(=N)N)NC(=O)[C@@H](CO)NC(=O)[C@H](Cc1ccccc1)NC(=O)[C@H](CC1CCCCC1)NC(=O)[C@H](CC(=O)O)NC(=O)[C@H](CCC(=O)O)NC(=O)[C@@H](N)CCC(=O)O)C(=O)N[C@@H](Cc1c[nH]c2ccccc12)C(=O)N[C@@H](CO)C(=O)O [AE349] (H-EED[Cha]F[dS][dR]YLWS-OH; N-terminus assumed)
READOUT_KIND: IC50
TEST_VALUE: 12.5

Query :: Enter IC50 (test system uPAR wt (Homo sapiens, UniProt Q03405)) for CC(C)C[C@H](NC(=O)[C@H](Cc1ccc(O)cc1)NC(=O)[C@@H](CCCNC(=N)N)NC(=O)[C@@H](CO)NC(=O)[C@H](Cc1ccccc1)NC(=O)[C@H](CC1CCCCC1)NC(=O)[C@H](CC(=O)O)NC(=O)COCCOCCNC(=O)[C@H](CCC(=O)O)NC(=O)[C@@H](N)CCC(=O)O)C(=O)N[C@@H](Cc1c[nH]c2ccccc12)C(=O)N[C@@H](CO)C(N)=O [AE347] (H-EE[AEEA]D[Cha]F[dS][dR]YLWS-NH2; N-terminus assumed)
Result :: 3.5
